biological target: Carbonic anhydrase 4 (Homo sapiens)
Sequence (P22748 whole entry): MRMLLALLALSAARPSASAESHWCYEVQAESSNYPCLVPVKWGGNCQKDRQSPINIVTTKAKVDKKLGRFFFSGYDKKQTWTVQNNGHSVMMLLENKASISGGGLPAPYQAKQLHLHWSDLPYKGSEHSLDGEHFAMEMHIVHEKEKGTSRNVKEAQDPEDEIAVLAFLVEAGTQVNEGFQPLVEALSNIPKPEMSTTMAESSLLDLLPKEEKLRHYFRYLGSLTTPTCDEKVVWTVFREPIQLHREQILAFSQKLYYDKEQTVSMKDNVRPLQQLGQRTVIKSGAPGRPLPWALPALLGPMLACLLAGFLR
Result type: Ki
Phrase the answer as number then unit, nothing more needed.

Input: Quick one: Ki for [O-][Cl+3]([O-])([O-])O [PERCHLORATE] ?
Output: 767 mM

Input: Quick one: Ki for [O-][Cl+2]([O-])O [CHLORATE] ?
Output: 64.9 mM

Input: Quick one: Ki for [O-][I+3]([O-])([O-])O [PERIODATE] ?
Output: 226 mM

Read the next record carefully.
Input: Quick one: Ki for [O-][Br+2]([O-])O [BROMATE] ?
Output: 128 mM

----------
biological target: UniProtKB P00915
Sequence (P00915 whole entry): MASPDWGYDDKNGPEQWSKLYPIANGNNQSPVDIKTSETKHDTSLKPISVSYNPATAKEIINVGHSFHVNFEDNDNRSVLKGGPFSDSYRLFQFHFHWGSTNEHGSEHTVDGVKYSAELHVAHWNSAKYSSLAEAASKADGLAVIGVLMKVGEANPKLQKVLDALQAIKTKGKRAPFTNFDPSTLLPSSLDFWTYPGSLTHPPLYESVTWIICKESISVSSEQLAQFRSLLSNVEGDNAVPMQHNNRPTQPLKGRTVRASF
Result type: pKi
Give bare numbers, as −log10 of the molar value.

Please review the entries below; each comes with its answer.
Input: Quick one: pKi for [O-][Cl+2]([O-])O [CHLORATE] ?
Output: 3.27

Input: Quick one: pKi for [O-][Br+2]([O-])O [BROMATE] ?
Output: 2.32

Input: Quick one: pKi for [O-][I+3]([O-])([O-])O [PERIODATE] ?
Output: 1.84

Read the next record carefully.
Input: Quick one: pKi for [O-][Cl+3]([O-])([O-])O [PERCHLORATE] ?
Output: 3.16

----------
Measurement record for Carbonic anhydrase 5A, mitochondrial (Homo sapiens, UniProt P35218); quantity recorded: Ki.
Phrase the answer as number then unit, nothing more needed.

Field: Ki. Fill in for each record below.
1. O=C(O)O [BICARBONATE]
2. [O-][Cl+3]([O-])([O-])O [PERCHLORATE]
3. O=[N+]([O-])O
4. [O-][Br+2]([O-])O [BROMATE]
5. O=S(=O)(O)O
6. [O-][Cl+2]([O-])O [CHLORATE]

Output:
95 mM
13.6 mM
16 mM
11.3 mM
680 mM
7.12 mM

Field: Ki. Fill in for each record below.
1. [O-][I+3]([O-])([O-])O [PERIODATE]
2. NS(=O)(=O)O [SULFAMATE]

Output:
1: 15.7 mM; 2: 0.12 mM

----------
Measurement record for Carbonic anhydrase 9 (Homo sapiens, UniProt Q16790); quantity recorded: Ki.
Numbers only, in mM.

Please review the entries below; each comes with its answer.
Input: Quick one: Ki for [O-][I+3]([O-])([O-])O [PERIODATE] ?
Output: 30.3

Input: Quick one: Ki for O=S(=O)(O)O [SULFURIC ACID] ?
Output: 154

Input: Quick one: Ki for [O-][Br+2]([O-])O [BROMATE] ?
Output: 274

Input: Quick one: Ki for [O-][Cl+2]([O-])O [CHLORATE] ?
Output: 147

Field: Ki. Fill in for each record below.
1. [O-][Cl+3]([O-])([O-])O [PERCHLORATE]
2. NS(=O)(=O)O [SULFAMATE]
3. O=C(O)O [BICARBONATE]

Output:
[11.6, 0.0092, 0.0086]
